assay.text: yeast display, Sf9 membrane polyspecificity reagent, FACS + sequencing; frameworks hold sequencing errors
property.name: polyreactivity (PSR sort gate)

# sequence.record, property.name, value.reported
data = [
    ("QVQLVESGGGLVQAGGSLRLSCASSGRTYNVMGWYRQATGKERELVAAITWRGGSTHYADSVKGRFTISRDNAKNTVYLQMNSLKAEDTAVYYCSADLLYKSTRVDYWGQGTQVTVSS", "polyreactivity (PSR sort gate)", "low polyreactivity"),
    ("QVQLVESGLGLVQAGGSLRISCAASGLTIYYYAMGWYRQAPGKERELVAAITWRGGSTYYADSVKGRFTISRDNAKNTVYLQMNSLKPEDTAVYYCNKAYKYIRQQPYRTKRYDYWGQGTQGTVSS", "polyreactivity (PSR sort gate)", "low polyreactivity"),
    ("QVQLVESGGGLVQAGGSLRLSCAASGFTFRSYTMGWYRQAPGKERELVARITRSCGNTYYADSVKGRFTISRDNAKNTVYVQMNSLKPEDTEGYYCASVYWGKYSAGNLLEYDYWGQGTQVTVSS", "polyreactivity (PSR sort gate)", "high polyreactivity"),
    ("QVQLVASGGGLVQAGGSLRLTCAASGSIFYAYAMGWSRQAPGKERELVASINSGGNTYYADSVKGRFTISRDNAKNTDYLQMNSLKAEATAVYYCAVDSKDNNDHWGQGTQVTVSS", "polyreactivity (PSR sort gate)", "low polyreactivity"),
    ("QVQLVESGGGLVQAGGSLRLSCAASGSTFSDNAMGWYRQAPGKERELVAAISSGGSTNYADSVKGRFTISRDNAKNTVYLQMNSLKPEDTAVYYCAREYYSRRYDYWGQGTQVTVSS", "polyreactivity (PSR sort gate)", "low polyreactivity"),
    ("QVQLVESGGGLVQAGGSLRLSCAASGRTFRAYAMGWYRQAPGKERELVAAITGGGSTKYADSVKGRFTISRDNAKNTVYLQMNSLKPEETAVYYCAATGRSGVLSSYYYWGQGTQVTVSS", "polyreactivity (PSR sort gate)", "high polyreactivity"),
    ("QVQLVESGGGLVQAGGSLRLSCAASGSIFLSYAMGWDRPAPGKVRELVADISRSGGSTYYADSVKGRFTISRDNAKNTVYLQMNSLKPEDTAVYYCAVYIAVYEGDYWGQGTQVTVSS", "polyreactivity (PSR sort gate)", "low polyreactivity"),
    ("QVQLVESGGGLVQAGGSLRLSCAASGSIFYAYAMGWYRQAPGKERELVAGINTRGGSTYYADSVKGRFTISRDNAKNTVYLQMNSLKPEDTAVYYCNARTLTVLEFDYWGQGTQVTVSS", "polyreactivity (PSR sort gate)", "low polyreactivity"),
    ("QVQLVESGGGLVQAGGSLRLSCAASGSTFSNNARGWYRQAPGKERELVAAISRSGGSTYYADSVKGRFTISRDNAKNTVYLQMNSLKPEDTAVYYCAAYAPYYRTMDYWGQGTQVTVSS", "polyreactivity (PSR sort gate)", "high polyreactivity"),
    ("QVQLVESGGGLVQAGGSLRLSCAASGRIFRGNAMGWYRQAPGKERELVAAISNSGGRTYYADSVKGRFTISRDNAKNTVYVQMTSLKPEDTAVYYCNAVTYSRRYAYYYWGQGTQVTVSS", "polyreactivity (PSR sort gate)", "high polyreactivity"),
    ("QVQLVESGGGLVQAGGSLRLSCAASGIIFRANAMGWYRQAPGKERELDAAISGRGSSTTYADSVKGRFTISRDNAKNTVYLQINSLKPEDTAVYYCAARLPYNNQVPGYYWGQGTQVTGSS", "polyreactivity (PSR sort gate)", "high polyreactivity"),
]
